Test context: in isopropanol, 283.15 K
Experimental readout: solubility (mole fraction)
Write no unit; give the number alone.

Ask: May I ask what solubility (mole fraction) has been recorded for N[C@@H](Cc1ccc([N+](=O)[O-])cc1[N+](=O)[O-])C(=O)O ?
Reply: 5.45e-06

###

Test context: in ethyl acetate, 303.15 K
Experimental readout: solubility (mole fraction)
Write no unit; give the number alone.

Ask: May I ask what solubility (mole fraction) has been recorded for N[C@@H](Cc1ccc([N+](=O)[O-])cc1[N+](=O)[O-])C(=O)O ?
Reply: 9.1e-09

###

Test context: in ethanol, 283.15 K
Experimental readout: solubility (mole fraction)
Write no unit; give the number alone.

Ask: May I ask what solubility (mole fraction) has been recorded for N[C@@H](Cc1ccc([N+](=O)[O-])cc1[N+](=O)[O-])C(=O)O ?
Reply: 9.2e-05

###

Test context: in sec-butanol, 343.15 K
Experimental readout: solubility (mole fraction)
Write no unit; give the number alone.

Ask: May I ask what solubility (mole fraction) has been recorded for N[C@@H](Cc1ccc([N+](=O)[O-])cc1[N+](=O)[O-])C(=O)O ?
Reply: 2.49e-06

###

Test context: in ethyl acetate, 323.15 K
Experimental readout: solubility (mole fraction)
Write no unit; give the number alone.

Ask: May I ask what solubility (mole fraction) has been recorded for N[C@@H](Cc1ccc([N+](=O)[O-])cc1[N+](=O)[O-])C(=O)O ?
Reply: 1.88e-06

###

Test context: in 1,2-dichloroethane, 313.15 K
Experimental readout: solubility (mole fraction)
Write no unit; give the number alone.

Ask: May I ask what solubility (mole fraction) has been recorded for N[C@@H](Cc1ccc([N+](=O)[O-])cc1[N+](=O)[O-])C(=O)O ?
Reply: 3.27e-07

###

Test context: in water, 313.15 K
Experimental readout: solubility (mole fraction)
Write no unit; give the number alone.

Ask: May I ask what solubility (mole fraction) has been recorded for N[C@@H](Cc1ccc([N+](=O)[O-])cc1[N+](=O)[O-])C(=O)O ?
Reply: 0.000189

###

Test context: in n-propanol, 333.15 K
Experimental readout: solubility (mole fraction)
Write no unit; give the number alone.

Ask: May I ask what solubility (mole fraction) has been recorded for N[C@@H](Cc1ccc([N+](=O)[O-])cc1[N+](=O)[O-])C(=O)O ?
Reply: 0.000113

###

Test context: in sec-butanol, 303.15 K
Experimental readout: solubility (mole fraction)
Write no unit; give the number alone.

Ask: May I ask what solubility (mole fraction) has been recorded for N[C@@H](Cc1ccc([N+](=O)[O-])cc1[N+](=O)[O-])C(=O)O ?
Reply: 7.79e-07

###

Test context: in isopropanol, 323.15 K
Experimental readout: solubility (mole fraction)
Write no unit; give the number alone.

Ask: May I ask what solubility (mole fraction) has been recorded for N[C@@H](Cc1ccc([N+](=O)[O-])cc1[N+](=O)[O-])C(=O)O ?
Reply: 0.000109

###

Test context: in isopropanol, 318.15 K
Experimental readout: solubility (mole fraction)
Write no unit; give the number alone.

Ask: May I ask what solubility (mole fraction) has been recorded for N[C@@H](Cc1ccc([N+](=O)[O-])cc1[N+](=O)[O-])C(=O)O ?
Reply: 8.75e-05

###

Test context: in methanol, 328.15 K
Experimental readout: solubility (mole fraction)
Write no unit; give the number alone.

Ask: May I ask what solubility (mole fraction) has been recorded for N[C@@H](Cc1ccc([N+](=O)[O-])cc1[N+](=O)[O-])C(=O)O ?
Reply: 0.00197

###

Test context: in water, 363.15 K
Experimental readout: solubility (mole fraction)
Write no unit; give the number alone.

Ask: May I ask what solubility (mole fraction) has been recorded for N[C@@H](Cc1ccc([N+](=O)[O-])cc1[N+](=O)[O-])C(=O)O ?
Reply: 0.00198

###

Test context: in ethanol, 343.15 K
Experimental readout: solubility (mole fraction)
Write no unit; give the number alone.

Ask: May I ask what solubility (mole fraction) has been recorded for N[C@@H](Cc1ccc([N+](=O)[O-])cc1[N+](=O)[O-])C(=O)O ?
Reply: 0.00079

###

Test context: in acetone, 278.15 K
Experimental readout: solubility (mole fraction)
Write no unit; give the number alone.

Ask: May I ask what solubility (mole fraction) has been recorded for N[C@@H](Cc1ccc([N+](=O)[O-])cc1[N+](=O)[O-])C(=O)O ?
Reply: 1.64e-06

###

Test context: in acetone, 318.15 K
Experimental readout: solubility (mole fraction)
Write no unit; give the number alone.

Ask: May I ask what solubility (mole fraction) has been recorded for N[C@@H](Cc1ccc([N+](=O)[O-])cc1[N+](=O)[O-])C(=O)O ?
Reply: 7.14e-06

###

Test context: in n-propanol, 343.15 K
Experimental readout: solubility (mole fraction)
Write no unit; give the number alone.

Ask: May I ask what solubility (mole fraction) has been recorded for N[C@@H](Cc1ccc([N+](=O)[O-])cc1[N+](=O)[O-])C(=O)O ?
Reply: 0.000294

###

Test context: in water, 273.15 K
Experimental readout: solubility (mole fraction)
Write no unit; give the number alone.

Ask: May I ask what solubility (mole fraction) has been recorded for N[C@@H](Cc1ccc([N+](=O)[O-])cc1[N+](=O)[O-])C(=O)O ?
Reply: 8.5e-08

###

Test context: in ethyl acetate, 313.15 K
Experimental readout: solubility (mole fraction)

Ask: May I ask what solubility (mole fraction) has been recorded for N[C@@H](Cc1ccc([N+](=O)[O-])cc1[N+](=O)[O-])C(=O)O ?
Reply: 1.88e-07

###

Test context: in sec-butanol, 273.15 K
Experimental readout: solubility (mole fraction)
Write no unit; give the number alone.

Ask: May I ask what solubility (mole fraction) has been recorded for N[C@@H](Cc1ccc([N+](=O)[O-])cc1[N+](=O)[O-])C(=O)O ?
Reply: 6.49e-07
